# tested_target: human Somatostatin 4 receptor (SSTR4) (Homo sapiens (Human))
# Sequence (P31391 whole entry): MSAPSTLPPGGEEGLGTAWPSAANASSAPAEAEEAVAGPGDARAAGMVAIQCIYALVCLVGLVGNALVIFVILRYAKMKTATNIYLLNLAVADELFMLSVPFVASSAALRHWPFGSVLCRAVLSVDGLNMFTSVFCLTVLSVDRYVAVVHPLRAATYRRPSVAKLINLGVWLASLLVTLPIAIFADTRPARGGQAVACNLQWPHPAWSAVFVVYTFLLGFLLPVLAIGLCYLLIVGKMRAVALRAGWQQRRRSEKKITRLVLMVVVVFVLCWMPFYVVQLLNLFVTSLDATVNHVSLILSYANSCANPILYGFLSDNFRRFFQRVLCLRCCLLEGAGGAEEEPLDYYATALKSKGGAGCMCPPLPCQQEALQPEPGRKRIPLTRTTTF
# assay_remarks: cAMP assay with human somatostatin 4 receptor (hSSTR4 expressing H4 cells)
# protocol_conditions: read-out: SSTR4 agonism EC50
endpoint_label: EC50 (nM)

Reference set, count: 2
{"molecule": "Cc1cccn2c(C(C)(C)NC(=O)[C@H]3[C@@H]4CNC[C@@H]43)nc(C)c12.Cl", "tested_target": "human Somatostatin 4 receptor (SSTR4) (Homo sapiens (Human))", "EC50 [nM]": 0.3}
{"molecule": "O=C(NC1CCCCC1c1ccccc1)[C@H]1[C@@H]2CNC[C@@H]21 (some centres unmarked)", "tested_target": "human Somatostatin 4 receptor (SSTR4) (Homo sapiens (Human))", "EC50 [nM]": 536}

[P] CC(C)(NC(=O)[C@H]1[C@@H]2CNC[C@@H]21)c1n[nH]c2c(C(F)(F)F)cccc12
[Q] Cc1cccc2c(C(C)(C)NC(=O)[C@H]3[C@@H]4CNC[C@@H]43)n[nH]c12
[R] CC(C)(NC(=O)[C@H]1[C@@H]2CNC[C@@H]21)c1n[nH]c2ccccc12
Qu. Sort entries by EC50 from minimum to maximum value. I'd appreciate it if you listed the labels in the requested order.
Ans. Q, P, R
(Q: 0.1 nM, P: 0.7 nM, R: 1.6 nM)
